All values here come from PubChem BioAssay AID1159580.

Please provide measured normalized growth for the entries that follow.
- measurementDescription: chemical genetic growth profiling, strain panel (AID 1159580);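 further: tested at 20 µM; growth read once vehicle control cultures reached saturation at 30 °C; 1 = growth at the plate median or of vehicle wells; lower values mean less growth of the strain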
- conditionParameters: S. cerevisiae deletion strains, growth OD, locus YER155C, strain BEM2, active compounds read low
About 2,000 (36%) of roughly 5,500 compounds were called active. Roughly 18% stayed inconclusive and do not appear here. This is one part of the list.
Give bare numbers.

compound	val
COc1cc(O)c(C)c(O)c1	0.999
CN(C)c1nc(N(C)C)nc(N(C)C)n1	1
COc1ccc2c(=O)c(CC(=O)O)coc2c1	0.989
CC(C)=CCOc1cc2oc(=O)ccc2cc1O	0.962
CN1CCN(CCCN2c3ccccc3Sc3ccc(Cl)cc32)CC1	1.04

Hello, I would appreciate it if you could give normalized growth for each entry below.
1. CSCCC(NC=O)C(=O)NC(CC(C)C)C(=O)NC(Cc1ccccc1)C(=O)O (stereo not given)
2. COc1cc(O)c(C(=O)O)c(O)c1

1.01
0.987

Hello, I would appreciate it if you could give normalized growth for each entry below.
1. CN1CCN(C(c2ccccc2)c2ccccc2)CC1
2. CCCCCN=C(N)N/N=C\c1c[nH]c2ccc(OC)cc12
3. CCOC(=O)C1=C(C)NC(C)=C(C(=O)OC)C1c1cccc([N+](=O)[O-])c1 (stereo not given)
4. C[C@H]1C(=O)O[C@@H]2CCN3CC=C(COC(=O)[C@](C)(O)[C@]1(C)O)[C@H]23
5. CC(C)CCCC(C)C1CCC2C3CCC4CC(=O)CCC4(C)C3CCC12C (stereo not given)

1. 1
2. 1.01
3. 0.997
4. 0.988
5. 1

Hello, I would appreciate it if you could give normalized growth for each entry below.
1. c1ccc2c(c1)[nH]c1cnccc12
2. Cc1cccc(N(C)C(=S)Oc2ccc3ccccc3c2)c1
3. CC1(C)C[C@@H]2C(=O)CC[C@H]3O[C@]3(C)CC[C@H]21
4. CC1=C2[C@](C)(C=CC1=O)C[C@H](O)[C@H]1[C@H](C)C(=O)O[C@]21C

1: 1; 2: 0.979; 3: 1; 4: 1.01

* * *

- measurementDescription: chemical genetic growth profiling, strain panel (AID 1159580)
- conditionParameters: S. cerevisiae deletion strains, growth OD, locus YDR150W, strain NUM1, active compounds read low
Screen size: about 5,500 compounds; about 2,000 (36%) were called active. Another 18% or so got no clear call; they are omitted. The list shows a part of the results.
Please provide measured normalized growth for the entries that follow.
One number for each entry.

Reference set (8 entries):
>>> df
                                   compound  experimentalreadout    val
0           CC(=O)CC(C)=Nc1ccc(C(F)(F)F)cc1    normalized growth  0.908
1  FC(F)(F)c1cc(NC2=NCCN=C(Nc3cc(C(F)(F)F)cc(C(F)(F)F)c3)SS2)cc(C(F)(F)F)c1    normalized growth   1.04
2  Cc1oc(-c2ccccc2)cc1C(=O)N1CCN(c2ccc(C(F)(F)F)cn2)CC1    normalized growth  0.858
3   Cn1cnc([N+](=O)[O-])c1Sc1ncnc2nc[nH]c12    normalized growth  0.999
4                   CCOC(=N)c1ccc(F)c(Cl)c1    normalized growth   1.01
5                     COc1cc2ccc(=O)oc2cc1O    normalized growth      1
6    N#CC(C#N)=CNc1cc(C(F)(F)F)ccc1N1CCCCC1    normalized growth  0.973
7  O=c1n(CCCN2CCN(c3cccc(Cl)c3)CC2)nc2ccccn12    normalized growth  0.992

Hello, I would appreciate it if you could give normalized growth for each entry below.
1. CC(C)=CCOc1c2occc2cc2ccc(=O)oc12
2. CCCCC/C=C\C/C=C\C/C=C\C/C=C\CCCC(=O)O
3. CC(C)(C)c1cc(C(C)(C)C)n(-c2ccc(N=Cc3cc(Br)cc(Br)c3O)cc2)n1
4. N#C/C(=C\Nc1ccc2c(c1)OCCO2)S(=O)(=O)c1ccc(C(F)(F)F)cn1
5. O=[N+]([O-])/N=C1/NCCN1Cc1ccc(Cl)cc1
6. CCc1cccc(C)c1NC(=O)N1CCN(C(=O)OC(C)(C)C)CC1
7. O=[N+]([O-])c1ccc(C2N(Cc3ccccc3)CCC3CCCCN32)cc1 (configuration not stated)

1: 0.899; 2: 0.99; 3: 0.355; 4: 1.01; 5: 1; 6: 1.03; 7: 0.997

Hello, I would appreciate it if you could give normalized growth for each entry below.
1. CCCCCN=C(N)N/N=C\c1c[nH]c2ccc(OC)cc12
2. NCCS
3. COc1ccc(/C=N\NC(=O)CC#N)cc1OC
4. Cc1ncc([N+](=O)[O-])n1CCO

1. 1.02
2. 1.01
3. 1.04
4. 0.956

Hello, I would appreciate it if you could give normalized growth for each entry below.
1. O=S(=O)(O)c1cccc2cccc(Cl)c12
2. COc1cc(O)c(C)c(O)c1
3. c1ccc2c(c1)-c1cccc3cccc-2c13
4. N/C(=N/OC(=O)C(Cl)Cl)c1cccc(Cl)c1Cl
5. S=C(S)N1CCCC1

1: 0.93; 2: 0.995; 3: 0.911; 4: 1; 5: 0.634

* * *

- measurementDescription: chemical genetic growth profiling, strain panel (AID 1159580);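 further: tested at 20 µM; growth read once vehicle control cultures reached saturation at 30 °C; 1 = growth at the plate median or of vehicle wells; lower values mean less growth of the strain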
- conditionParameters: S. cerevisiae deletion strains, growth OD, strain TSCII, active compounds read low
Hit rate of the full screen: of about 5,500 compounds, about 2,000 (36%) were called active. About 18% were inconclusive and are not listed. The list shows a part of the results.
experimentalReadout: normalized growth
Numbers only.

Reference set (5 entries):
In [3]: df
Out[3]:
                                   compound    val
0                          CN(C)c1nc(=S)ss1  0.706
1      CCCCCc1ccc(-c2nc(SCC(C)=O)n[nH]2)cc1  0.936
2   Nc1ccc(N2CCN(c3ccc(C(F)(F)F)cn3)CC2)nc1   0.97
3  O=C(N/N=C\c1cc(Cl)cc(Cl)c1O)c1ccccc1Oc1ccccc1  0.967
4  COC(=O)c1ccc(Oc2c(C(F)(F)F)oc3cc(O)ccc3c2=O)cc1   0.96

Hello, I would appreciate it if you could give normalized growth for each entry below.
1. O=C(SCc1c(Cl)cccc1Cl)c1ccc([N+](=O)[O-])o1
2. Cc1oc(-c2ccc(Cl)cc2)cc1C(=O)N1CCN(c2ccc(C(F)(F)F)cn2)CC1
3. Cc1c(Cl)cccc1N=C1SCC(=O)N1Cc1ccco1
4. O=S(=O)(Nc1ccc(-n2nc(C(F)(F)F)cc2-c2cccs2)cc1)c1ccc(F)cc1
5. O=C(Oc1ccc(C2SCCS2)cc1)c1cccs1
6. CSc1sc(-c2ccn[nH]2)c(-c2ccccc2)c1C#N

1. 0.939
2. 0.98
3. 0.976
4. 0.995
5. 1.02
6. 0.984

Hello, I would appreciate it if you could give normalized growth for each entry below.
1. N#C/C(=N/Nc1ccc(C(F)(F)F)cc1)C(=O)C1CC1
2. N#C/C(=N/Nc1ccc(Cl)cc1)C(N)=S
3. Cc1c(C(=O)NCCNc2ccc(C(F)(F)F)cc2[N+](=O)[O-])cnn1-c1ccc(F)cc1
4. O=S(=O)(Nc1cc(-c2cccs2)nn1-c1ccc(I)cc1)c1cccc(F)c1
5. CCCCc1ccc(N=CNO)c(C)c1
6. CN(NC(=S)Nc1cc(Cl)ccc1Cl)c1ccc(C(F)(F)F)cc1[N+](=O)[O-]
7. O=C(c1ccc(Cl)cc1)N1CCN(c2ccc(C(F)(F)F)cn2)CC1

[0.947, 0.495, 0.982, 0.965, 0.964, 0.968, 0.972]

* * *

- measurementDescription: chemical genetic growth profiling, strain panel (AID 1159580);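 further: tested at 20 µM; growth read once vehicle control cultures reached saturation at 30 °C; 1 = growth at the plate median or of vehicle wells; lower values mean less growth of the strain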
- conditionParameters: S. cerevisiae deletion strains, growth OD, locus YHR200W, strain rpn10, active compounds read low
Screen size: about 5,500 compounds; about 2,000 (36%) were called active. Another 18% or so got no clear call; they are omitted. The list shows a part of the results.
Please provide measured normalized growth for the entries that follow.
One number for each entry.

>>> print(df.to_string())
                                   compound  experimentalreadout    val
0  CC(=O)Oc1ccc2c(c1)CCC1C2CC[C@@]2(C)C1CC[C@@H]2OC(C)=O (stereo partly specified)    normalized growth  0.963

Hello, I would appreciate it if you could give normalized growth for each entry below.
1. COc1cc2ccc(=O)oc2c2ccoc12
2. CC(=O)OCC(=O)[C@@]1(O)CCC2C3CCC4=CC(=O)CC[C@]4(C)[C@@]3(F)[C@@H](O)C[C@@]21C (stereo partly specified)

0.899
0.996

* * *

Please provide measured normalized growth for the entries that follow.
- measurementDescription: chemical genetic growth profiling, strain panel (AID 1159580);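 further: tested at 20 µM; growth read once vehicle control cultures reached saturation at 30 °C; 1 = growth at the plate median or of vehicle wells; lower values mean less growth of the strain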
- conditionParameters: S. cerevisiae deletion strains, growth OD, locus YLR262C, strain YPT6, active compounds read low
About 2,000 (36%) of roughly 5,500 compounds were called active. About 18% were inconclusive and are not listed. Some of the results follow.
One number for each entry.

>>> df
                                   compound  experimentalreadout    val
0            Cn1c([N+](=O)[O-])cnc1COC(N)=O    normalized growth   1.05
1                  COc1cc2ccc(=O)oc2c(O)c1O    normalized growth  0.955
2  CCc1cccc(C)c1NC(=O)N1CCN(C(=O)OC(C)(C)C)CC1    normalized growth  0.984
3           COc1ccccc1N=C1SCC(=O)N1Cc1ccco1    normalized growth  0.998
4  CCOc1ccc(Cc2nccc3cc(OCC)c(OCC)cc23)cc1OCC    normalized growth  0.861

Hello, I would appreciate it if you could give normalized growth for each entry below.
1. O=c1ccc2cc(O[C@@H]3O[C@H](CO)[C@@H](O)[C@H](O)[C@H]3O)c(O)cc2o1
2. COc1ccc(Cc2nccc3cc(OC)c(OC)cc23)cc1OC
3. CCSC(SCC)[C@H](O)[C@@H](O)[C@H](O)CO
4. O=C(O)C12CC3CC(CC(Br)(C3)C1)C2
5. O=C(NCCNc1ccc(C(F)(F)F)cc1[N+](=O)[O-])c1cccs1

1. 1.08
2. 1.01
3. 0.904
4. 1.1
5. 0.915

Hello, I would appreciate it if you could give normalized growth for each entry below.
1. CCCCC(=O)O[C@H]1CCC2C3CCc4cc(O)ccc4C3CC[C@@]21C (some centres undefined)
2. CC(O)CNc1ccc(C(F)(F)F)cc1[N+](=O)[O-] (centres undefined)
3. O=C1c2ccc(O)c(O)c2C(=O)c2c(O)ccc(O)c21
4. CNC(=O)CSP(=S)(OC)OC
5. COc1ccc2ccc(=O)oc2c1CC=C(C)C

1. 0.749
2. 0.985
3. 1.09
4. 0.999
5. 0.476

Hello, I would appreciate it if you could give normalized growth for each entry below.
1. c1ccc2c(c1)[nH]c1cnccc12
2. CC(C)=CCOc1c2occc2cc2ccc(=O)oc12
3. O=C(CCCN1CC=C(n2c(=O)[nH]c3ccccc32)CC1)c1ccc(F)cc1
4. O=c1[nH]c2ccccc2n1C1CCN(CCCC(c2ccc(F)cc2)c2ccc(F)cc2)CC1

0.947
0.448
0.942
1.04

Hello, I would appreciate it if you could give normalized growth for each entry below.
1. Cc1cc(C)c(C(=O)NCCNc2ccc(C(F)(F)F)cc2[N+](=O)[O-])c(C)c1
2. COc1cc(OC)c2c(c1Cl)OC1(C2=O)C(O)=CC(=O)CC1C (centres undefined)
3. CC(=O)Oc1ccc2c(c1)CCC1C2CC[C@@]2(C)C1CC[C@@H]2OC(C)=O (some centres undefined)
4. Cc1ccc(S(=O)(=O)Oc2cc(=O)n(C)c3ccccc23)cc1
5. COP(=S)(OC)SCn1nnc2ccccc2c1=O

1: 0.58; 2: 1.06; 3: 0.729; 4: 0.918; 5: 0.941
